assayed-target: human ether-à-go-go-related gene (hERG) potassium channel (human);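 further: peak tail current of the secondary pulse compared with the same well before compound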
Sequence (Q12809 whole entry, looked up): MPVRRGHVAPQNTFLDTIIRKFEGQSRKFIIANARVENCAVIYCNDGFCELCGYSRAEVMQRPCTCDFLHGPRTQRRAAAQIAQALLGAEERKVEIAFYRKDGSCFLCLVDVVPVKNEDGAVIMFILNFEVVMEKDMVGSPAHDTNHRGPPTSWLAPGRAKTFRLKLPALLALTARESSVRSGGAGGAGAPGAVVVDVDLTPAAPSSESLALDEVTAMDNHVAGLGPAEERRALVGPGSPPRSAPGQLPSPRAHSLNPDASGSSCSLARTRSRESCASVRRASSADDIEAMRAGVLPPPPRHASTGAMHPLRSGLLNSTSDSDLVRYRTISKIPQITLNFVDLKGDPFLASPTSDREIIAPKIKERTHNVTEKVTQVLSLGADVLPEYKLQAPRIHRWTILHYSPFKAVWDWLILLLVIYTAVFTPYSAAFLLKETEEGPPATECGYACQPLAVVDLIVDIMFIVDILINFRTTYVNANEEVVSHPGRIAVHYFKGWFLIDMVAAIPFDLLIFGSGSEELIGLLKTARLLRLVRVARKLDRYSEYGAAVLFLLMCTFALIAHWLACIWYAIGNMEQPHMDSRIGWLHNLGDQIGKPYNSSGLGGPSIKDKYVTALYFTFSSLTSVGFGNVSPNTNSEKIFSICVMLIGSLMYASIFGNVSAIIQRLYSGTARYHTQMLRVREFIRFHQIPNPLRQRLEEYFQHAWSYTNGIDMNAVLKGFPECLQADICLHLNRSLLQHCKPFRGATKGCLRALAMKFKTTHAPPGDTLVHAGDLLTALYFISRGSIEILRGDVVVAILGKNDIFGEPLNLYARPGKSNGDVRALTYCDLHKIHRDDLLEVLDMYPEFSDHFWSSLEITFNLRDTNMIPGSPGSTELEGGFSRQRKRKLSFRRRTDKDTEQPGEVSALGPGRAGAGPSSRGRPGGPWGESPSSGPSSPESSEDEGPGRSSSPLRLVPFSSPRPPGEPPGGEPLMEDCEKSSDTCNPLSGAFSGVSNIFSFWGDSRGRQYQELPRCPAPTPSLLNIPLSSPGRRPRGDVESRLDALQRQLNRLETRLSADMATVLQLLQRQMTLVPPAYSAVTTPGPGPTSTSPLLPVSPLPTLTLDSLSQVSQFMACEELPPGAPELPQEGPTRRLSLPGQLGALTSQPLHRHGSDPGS
test-description: primary screen, population patch clamp on CHO cells stably expressing hERG; higher = less effect of the substance
Among all 310,000 compounds or so, about 14,000 (4.5%) showed an effect of 50% or more. The effect is printed as a negative number. Many of the other results were omitted from the sample, so strong results are more common in it than they were.
result-type: hERG current change (%, negative = inhibition) at 10uM (%)
Reply numerically in %, unit not repeated.

query: Data request, read-out hERG current change (%, negative = inhibition) at 10uM, for CCCCN(C(=O)c1cccc(S(=O)(=O)N2CCCC2)c1)c1c(N)n(CCC)c(=O)[nH]c1=O
result: 4.89

query: Next molecule: COCCn1c(SCCCC(=O)c2ccc(Br)cc2)nnc1-c1ccncc1
result: -60.7

query: Next molecule: CCOC(=O)C1(Cc2ccccc2C)CCCN(C(=O)CCc2c(C)noc2C)C1 (stereo not shown)
result: -29.3

query: Next molecule: O=C(CN1CCN(c2ccccn2)CC1)Nc1ccc2ccccc2c1
result: -43.9

query: Next molecule: CCOc1ccc(C(C)=O)cc1CSc1nnc(-c2ccncc2)n1CCOC
result: -0.498

query: Next molecule: COc1ccc(CNC(c2ccccc2)c2ccc(Cl)cc2)cc1 (stereo not shown)
result: 6.38

query: Next molecule: Cn1c(SCCCC(=O)c2ccc(F)cc2)nnc1-c1ccncc1
result: -59.6

query: Next molecule: COc1ccccc1CNC(=O)c1ccc(OC(C)C)cc1
result: 17.6

query: Next molecule: CN(C)c1ccc(Nc2cc(Cl)ncn2)cc1
result: 1.65

query: Next molecule: COc1ccccc1C(CCNCc1ccccc1)c1ccc(OC(C)C)cc1 (stereo not shown)
result: -59.3
